The origin of these recorded values is patent US12723255B2.

experiment: kinetic analysis, non-endpoint assay at 23° C.; type: biochemical; conditions: Table 10 series; 23° C.; unit as defined; read-out: Km Quizalofop

>  <molecule>
MON-HT17: engineered oxygenase protein, amino acid sequence SEQ ID NO:51 (protein) MHAALTPLTNKYRFIDVQPLTGVLGAEITGVDLREPLDDSTWNEILDAFHTYQVIYFPGQAITNEQHIAFSRRFGPVDPVPILKSIEGYPEVQMIRREANESSRYIGDDWHADSTFLDAPPAAVVMRAIEVPEYGGDTGFLSMYSAWETLSPTMQATIEGLNVVHSATKVFGSLYQATNWRFSNTSVKVMDVDAGDRETVHPLVVTHPVTGRRALYCNQVYCQKIQGMTDAESKSLLQFLYEHATQFDFTCRVRWKKDQVLVWDNLCTMHRAVPDYAGKFRYLTRTTVAGDKPSR

>  <Km [µM]>
140

$$$$
